# targetEntity: human Kv3.1 channels (hKv3.1) (Homo sapiens, UniProt P48547)
# assayName: cell-based
# Type: cell-based
# settings: HEK-hKv3.1 cells, -15 mV voltage step, normalised to 50 microM reference compound
attributeMeasured: Kv3.1 pEC50
One number for each entry.

compound: CC[C@@]1(C)NC(=O)N(c2cnc(Oc3ccc(C)c4c3C(C)(C)CO4)cn2)C1=O
Kv3.1 pEC50: 5.29

Give one value of Kv3.1 pEC50 per listed compound.
1. CC[C@H]1NC(=O)N(c2ccc(Oc3cccc4c3C3(CC3)CO4)nc2)C1=O [RE13, reference compound]
2. CC[C@H]1NC(=O)N(c2cnc(Oc3ccc(C)c4c3C(C)(C)CO4)cn2)C1=O
3. Cc1ccc(Oc2cnc(N3C(=O)NC(C)(C)C3=O)cn2)c2c1OCC2(C)C
4. Cc1ccc(Oc2cnc(N3C(=O)NC(C)(C)C3=O)nc2)c2c1OCC21CC1 [RE8, reference compound]
5. CC1(C)NC(=O)N(c2cnc(Oc3cccc4c3C3(CC3)CO4)cn2)C1=O
6. Cc1ccc(Oc2ncc(N3C(=O)NC(C)(C)C3=O)cn2)c2c1OCC21CC1 [RE5, reference compound]

1: 6.1; 2: 5.56; 3: 5.12; 4: 4.98; 5: 5.17; 6: 5.14

Give one value of Kv3.1 pEC50 per listed compound.
1. CC1(C)NC(=O)N(c2cnc(Oc3cccc4c3C(C)(C)CO4)cn2)C1=O
2. Cc1ccc(Oc2cnc(N3C(=O)NC4(CCC4)C3=O)cn2)c2c1OCC21CC1
3. CC[C@H]1NC(=O)N(c2cnc(Oc3cccc4c3C(C)(C)CO4)cn2)C1=O
4. Cc1ccc(Oc2cnc(N3C(=O)NC4(CC4)C3=O)cn2)c2c1OCC21CC1
5. Cc1ccc(Oc2ccc(N3C(=O)NC(C)(C)C3=O)cn2)c2c1OCC21CC1 [RE6, reference compound]
6. CC[C@H]1NC(=O)N(c2ccc(Oc3cccc4c3C3(CC3)CO4)cn2)C1=O [RE14, reference compound]
7. Cc1ccc(Oc2ccc(N3C(=O)NC(C)(C)C3=O)cn2)cc1OC(F)(F)F [RE2, reference compound]
8. Cc1ccc(Oc2ccc(N3C(=O)NC(C)(C)C3=O)nc2)c2c1OCC21CC1 [RE7, reference compound]

[4.68, 5.09, 4.89, 5.51, 5.58, 5.2, 5.25, 5.56]

Give one value of Kv3.1 pEC50 per listed compound.
1. CC[C@H]1NC(=O)N(c2ccc(Oc3ccc(C)c4c3C3(CC3)CO4)cn2)C1=O [RE12, reference compound]
2. CC[C@@]1(C)NC(=O)N(c2cnc(Oc3cccc4c3C(C)(C)CO4)cn2)C1=O

[5.6, 4.75]
